Data provenance: patent US20030148956A1

TARGET DESC: CRF1R
PROTOCOL NOTES: cell-based or functional assay
Ends that are not written are not given here.
READOUT LABEL: CRF1R Emax (%)
The reply should contain only the number, in %.

Req: May I ask what CRF1R Emax has been recorded for ZGPPISIDLPIGLLRKMIEIEKQEKEKQQAANNRLLLDTI (C-terminal amide) [SEQ ID NO 75] ?
Resp: 5

Req: What CRF1R Emax value was documented for this binder, ZGPPISIDLPTKLLRKMIEIEKQEKEKQQAANNRLLLDTI (C-terminal amide) [SEQ ID NO 45] ?
Resp: 7

Req: // returns reported CRF1R Emax for input ZGPPISIDLPKYLLRKMIEIEKQEKEKQQAANNRLLLDTI (C-terminal amide) [SEQ ID NO 58]
Resp: 16

Req: Name the recorded CRF1R Emax for ZGPPISIDLPFYLLRKMIEIEKQEKEKQQATTNARILARV (C-terminal amide) [SEQ ID NO 147] .
Resp: 96

Req: Which value of CRF1R Emax has been reported for IVLSLDVPIGLLQILLEQEKQEAAREQATTNARILARV-NH2 [SEQ ID NO 125] in the records?
Resp: 9

Req: Item under review: ZGPPISIDLPQILLRKMIEIEKQEKEKQQAANNRLLLDTI (C-terminal amide) [SEQ ID NO 199] . Reported CRF1R Emax?
Resp: 93
